TGI overview
Test system: TK-10 renal
Assay: NCI tumour cell line growth inhibition, 48 h

Worked examples follow.
>>> print(df.to_string())
                                   compound   observed
0  CC1(C)OC[C@@H]([C@H](O)C2C=CC(=O)S2)O1 (stereo not given in full)   > 100 µM
1  Cc1ccc(Nc2oc(-c3ccccc3)nc2[P+](c2ccccc2)(c2ccccc2)c2ccccc2)cc1    2.93 µM
2  CCOC1c2cc(C(C)C)c(O)c(O)c2[C@@]23CCCC(C)(C)C2C1OC3=O (stereo not given in full)   > 100 µM
3  CCOC(=O)c1c2c(n(Cc3ccccc3)c1C)C(=O)C(=O)c1ccccc1-2    1.18 µM
4  Cc1cc(C(F)(F)F)cc(-n2nc(NS(=O)(=O)c3cc(C)c(Cl)cc3S)nc2N)n1   > 100 µM
5  COc1ccc2c(c1)CCCN2CCCCCCCCCCN(CCC(C)C)CCC(C)C    31.9 µM
6          Cc1cc2c(cc1C(=O)c1ccc(N)cc1)OCO2   > 100 µM
7  CC(C)=CCc1cc(O)cc2c1OC(C=C(C)C)C1=C2C(=O)C2=C(C1=O)S(=O)(=O)CCN2 (stereo not given)  > 16.7 µM

query: Give TK-10 renal TGI for the following compound: `COC(=O)C1=C(O)c2ccc(Cl)cc2S(=O)(=O)N1C`
result: > 100 µM

query: Jot down TGI (TK-10 renal) of `O=C(NNc1ccccc1)C(=O)NNc1ccccc1` .
result: > 100 µM

The reported numbers originate from PubChem BioAssay (NCI).
